Listed variants paired with reported Tm
B1: Lysozyme C, P61626 (parent)
chain: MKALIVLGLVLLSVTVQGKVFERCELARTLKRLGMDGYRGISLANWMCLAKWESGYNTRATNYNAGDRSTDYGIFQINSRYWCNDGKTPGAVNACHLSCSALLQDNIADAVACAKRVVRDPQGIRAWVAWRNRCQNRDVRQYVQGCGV

- Variants of: B1
- MEASUREMENT_CONDITIONS: Homo sapiens; pH 2.83; Thermal; DSC; Gly-HCl 0.05 M; structure 1LZ1; whole UniProt chain shown

V20Y : 65.9 °C
V92S : 66 °C

Inquiry: Write down Tm measured for item V92D
Reply text: 65.9 °C

Inquiry: Check the records and state Tm for V20S
Reply text: 62.9 °C

Inquiry: For the variant V128N , give its reported Tm.
Reply text: 67.2 °C
